# system_tested: Rap guanine nucleotide exchange factor 3 (Homo sapiens)
# assay_comment: Confirmatory qHTS for antagonist of cAMP-regulated guanine nucleotide exchange factor 3 (EPAC1) (AID 1645880); note: nearly all actives have a fitted effect of over 55% in size
# stated_conditions: EPAC1 Rap1B-BODIPY-GDP exchange, fluorescence; series mostly up to 115 µM
Records with an inconclusive call do not appear. Calls of active or inactive are those of the source. Calls come from the whole dose curve; as a rule, active = well fitted inhibition curve with a large enough effect; inconclusive = small, poorly fitted or top-dose-only effect; inactive = no such curve, though single readings can be large or run the other way.
Labels: active, inactive

{"columns": ["molecule", "assigned_label"],
 "data": [
  ["COc1cc(CNn2cnnc2)ccc1OCC(=O)NC(C)(C)C", "inactive"],
  ["O=C1CC(c2ccccc2)=C(c2ccccc2)C1", "inactive"],
  ["CCC(=O)OCCCNc1nc(-c2ccc(Cl)cc2)nc2ccccc12", "inactive"],
  ["CC1=Nc2ccccc2/C1=C/c1sc(=S)n(-c2cccc(C(=O)O)c2)c1O", "active"],
  ["Cc1nnnn1-c1ccc(CC(=O)O)cc1", "inactive"],
  ["Cc1ccn2cc(CNC(=O)c3cccs3)nc2c1", "inactive"],
  ["O=C(COc1ccc(F)cc1)Nc1nccs1", "inactive"],
  ["CCOC(=O)c1ccc(-c2ccc(/C=C(\\C#N)C(=O)Nc3c(C)cccc3Cl)o2)cc1", "active"],
  ["Cn1cc(C(=O)N/N=C/C2=C(N3CCOCC3)C(=C\\c3ccccc3)/CC2)ccc1=O", "inactive"],
  ["COc1ccccc1Nc1nc(N)nc(CN2CCC(C)CC2)n1", "inactive"],
  ["Cc1cccc(OCCCSc2nc(-c3ccc(C(C)(C)C)cc3)nc3cc(=O)[nH]n23)c1C", "active"],
  ["COc1cc(O)cc(O)c1C(=O)/C=C/c1ccccc1", "active"],
  ["COc1ccc(SC[C@H](Cc2ccccc2)N2CC[C@@H](C)CCC2=O)cc1", "inactive"],
  ["OC(c1ccc(Cl)c(Cl)c1)c1ncc(-c2ccc(Cl)cc2)[nH]1 (stereo not drawn)", "inactive"],
  ["COc1cc(/C=C(\\C#N)C(=O)NC(C)C)cc(Cl)c1O", "inactive"],
  ["c1ccc(N2[C@@H]3c4ccccc4C[C@H]2c2ccccc23)cc1", "inactive"],
  ["O=C(N/N=C\\c1cc([N+](=O)[O-])ccc1N1CCCC1)c1ccccn1", "inactive"],
  ["NNc1nc2c(Cl)cccc2s1", "inactive"],
  ["CC(C)(C)c1ccc(-c2nc(SCCCOc3ccccc3)n3[nH]c(=O)cc3n2)cc1", "active"],
  ["O=C(c1ccccc1)N1CCN(CCc2ccccn2)CC1", "inactive"],
  ["COc1ccccc1-n1c(-c2ccccc2)c[n+]2c1CCc1ccccc1-2", "inactive"],
  ["CCOC(=O)C1CCCN(C(=O)c2cnn(-c3nccc(-c4cc(C)sc4C)n3)c2C)C1 (stereo not drawn)", "inactive"],
  ["C/C=C(\\C)C(=O)OC1C(OC(=O)C2(C)OC2C)c2cc3ccc(=O)oc3cc2OC1(C)C (stereo not drawn)", "inactive"]
]}
